FYI, the data here is from ChEMBL document CHEMBL4513216.

assay: Toxicity liver stage against HepG2, at 10uM; assay type: cell-based; set-up: test concentration 10 uM, cell line HepG2-A16-CD81EGFP; conditions: human, HepG2-A16-CD81EGFP cells; read-out: INHIBITION
Each entry below lists one item and its recorded cytotoxicity at 10 µM value.
Unit % implied. Number only.

Query: Could you share which cytotoxicity at 10 µM value was measured for `CC(C)N(C)Cc1cn2c(n1)CN(C(=O)Cc1ccsc1)CC2` ?
Result: -11.1

Query: Could you share which cytotoxicity at 10 µM value was measured for `Cc1ccc2c(n1)N(CCn1cccn1)CCN(C(=O)CC1CC1)C2` ?
Result: -5.58

Query: Could you share which cytotoxicity at 10 µM value was measured for CCn1ccnc1CN1CCC(N(C)Cc2ncc(C)o2)C1 (stereo not given) ?
Result: -7.48

Query: Could you share which cytotoxicity at 10 µM value was measured for Cc1cc(CCC(N)=O)cc(C2CCCN2Cc2cnc(C)nc2)n1 (stereo not given) ?
Result: -26.1

Query: Could you share which cytotoxicity at 10 µM value was measured for `Cn1nccc1CCC(=O)N1CCC(c2cnccn2)CC1` ?
Result: -21.7

Query: Could you share which cytotoxicity at 10 µM value was measured for CNc1cncc(C2CCCN2C(=O)Cn2c(=O)oc3ccccc32)n1 (stereo not given) ?
Result: -6.14

New cases:
Query: Could you share which cytotoxicity at 10 µM value was measured for O=C(CC1OCCc2ccccc21)NCC1(O)CCCCC1 (stereo not given) ?
Result: 1.07

Query: Could you share which cytotoxicity at 10 µM value was measured for CCC(C)(N)c1nc(C(C)C)cc(=O)[nH]1 (stereo not given) ?
Result: 14

Query: Could you share which cytotoxicity at 10 µM value was measured for `CSCc1cc(F)ccc1CNCc1ccncc1` ?
Result: -7.53

Query: Could you share which cytotoxicity at 10 µM value was measured for `CSc1cc2c(cc1NC(=O)NCCn1ccnc1)OCCO2` ?
Result: -8.28

Query: Could you share which cytotoxicity at 10 µM value was measured for `CCN1CCN(C(=O)CCn2cccc2)CC1` ?
Result: 7.66

Query: Could you share which cytotoxicity at 10 µM value was measured for CS(=O)(=O)c1snnc1C1CCCN(Cc2ccncc2)C1 (stereo not given) ?
Result: -11.5

Query: Could you share which cytotoxicity at 10 µM value was measured for N#CC(NC(=O)CNC(=O)c1ccccc1)c1ccsc1 (stereo not given) ?
Result: 1.8

Query: Could you share which cytotoxicity at 10 µM value was measured for CC(CO)NS(=O)(=O)c1cccc(C(C)C)c1 (stereo not given) ?
Result: -20

Query: Could you share which cytotoxicity at 10 µM value was measured for Cc1ccc(Cl)c(NC(=O)NC2(C)CCOC2)c1 (stereo not given) ?
Result: -46.7

Query: Could you share which cytotoxicity at 10 µM value was measured for `Cn1cc(C(=O)N2CC[C@@H]3[C@@H]2CCN3Cc2ccccc2)cn1` ?
Result: -69.8

###

Each entry below lists one item and its recorded cytotoxicity at 10 µM value.
assay: Toxicity liver stage against HepG2, at 10uM; format: cell-based; set-up: test concentration 10 uM, cell line HepG2-A16-CD81EGFP; settings: human, HepG2-A16-CD81EGFP cells; read-out: INHIBITION
Unit % implied. Number only.

Query: Could you share which cytotoxicity at 10 µM value was measured for CC(C(=O)Nc1ccnn1C(C)C)N1CCN(Cc2ccon2)CC1 (centres undefined) ?
Result: 0.72

Query: Could you share which cytotoxicity at 10 µM value was measured for `Cc1ccc(NC2CCN(C(=O)c3ccc(C)o3)CC2)nn1` ?
Result: -4.69

Query: Could you share which cytotoxicity at 10 µM value was measured for `COCCN(C)C[C@@H]1CCC[C@@H]2CN(Cc3ccc(OC)nc3)C[C@@H]21` ?
Result: 8.13

Query: Could you share which cytotoxicity at 10 µM value was measured for `CC(C)c1nccc(CN2CCC(c3nc4ccccc4n3C)CC2)n1` ?
Result: 7.23

Query: Could you share which cytotoxicity at 10 µM value was measured for Cc1ncccc1CNCC1COC2(CCCCC2)O1 (centres undefined) ?
Result: -149

Query: Could you share which cytotoxicity at 10 µM value was measured for `O=C(CCc1nc2cccnc2[nH]1)Nc1ccc2c(c1)OCC(=O)N2` ?
Result: 6.78

New cases:
Query: Could you share which cytotoxicity at 10 µM value was measured for `Cn1ccc2cc(C(=O)N3CCOCC3)ccc21` ?
Result: 1.91

Query: Could you share which cytotoxicity at 10 µM value was measured for Cc1nn(C)c(C)c1C1CCCN1CC(=O)NC(C1CC1)C1CC1 (centres undefined) ?
Result: -5.38
